# Tested on: HCT-15 colon
# assay_details: NCI-60 one-dose screen, 48 h (100 = growth as untreated, 0 = no growth, -100 = all killed)
# condition_context: 10 µM unless noted
This is part of a sample that, as a whole, favours compounds with a hit. Of some 83,000 tested, about 20% had one in any assay. Activity calls are given as the source filed them. The calls were made as follows: active = growth percent below 10; inactive = the rest.
Overview of recorded growth for various compounds

smiles_entry	growth
Cc1ccccc1/C=C/c1nn2c(-c3ccoc3C)nnc2s1	97.9% (inactive)
CC[C@@](C)(NC(=O)C(C)(C)NC(=O)[C@@H](NC(=O)[C@@H]1CCCN1C(=O)C(C)(C)NC(=O)[C@H](CC(C)C)NC(=O)CNC(=O)C(C)(C)NC(=O)[C@@H](NC(=O)C(C)(C)NC(=O)[C@H](CCC(N)=O)NC(=O)[C@H](C)NC(=O)C(C)(C)NC(=O)[C@H](C)NC(=O)C(C)(C)NC(=O)[C@@H]1CCCN1C(=O)C(C)(C)NC(C)=O)C(C)C)C(C)C)C(=O)N[C@@H](CCC(N)=O)C(=O)N[C@@H](CCC(N)=O)C(=O)N[C@H](CO)Cc1ccccc1	98% [4.25 µM] (inactive)
